assay notes: NCI Yeast Anticancer Drug Screen. Data for the rad50 strain (AID 155);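 further: 0% = growth of vehicle-only cultures of the same strain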
condition: S. cerevisiae rad50 strain growth inhibition; at 1.2 µM; stronger effect = higher value
Description: Growth inhibition of yeast strains with defined genetic alterations is measured as a screen for potential anti-cancer activity. Selected strains with alterations in DNA damage repair or cell cycle control were exposed to compounds and growth inhibition was measured relative to vehicle treated controls. The strain used in this assay is rad50
This is part of a sample that, as a whole, favours compounds with a hit. Of some 79,000 tested, about 15% had one in any assay. The source made the active and inactive calls. No stated cut-off is given here; in the data, active means growth inhibition above about 70%; inactive means the rest.
measured property: growth inhibition

Request: Any idea what its growth inhibition is? The compound is CCCCCCCSCC1C(=O)C23C(O)C1CCC2C12COC3(O)C(O)C1C(C)(C)CCC2O (stereo not given)
Result: 13% (inactive)

Request: And what about the compound Cc1ccc(S(=O)(=O)N/N=C/C(Br)=C(/Br)C(=O)O)cc1 ?
Result: 41% (inactive)

Request: And what about the compound CCC(/C=C/c1ccccc1)=N\Nc1ccc(Cl)cc1 ?
Result: 3% (inactive)

Request: And what about the compound O=S(=O)(NC1CCCC(c2ccccc2)C1)c1ccccc1 (stereo not given) ?
Result: 3% (inactive)

Request: And what about the compound CCS(=O)(=O)Nc1ccc(Nc2c3ccccc3nc3ccccc23)c(OC)c1 ?
Result: 51% (inactive)

----------
assay notes: NCI Yeast Anticancer Drug Screen. Data for the sgs1 mgt1 strain (AID 161);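 further: 0% = growth of cultures given vehicle only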
condition: S. cerevisiae sgs1 mgt1 strain, at 50.0 µM (retest, dose inferred, filed as 5.0)
This is part of a sample that, as a whole, favours compounds with a hit. Of some 79,000 tested, about 15% had one in any assay. Calls of active or inactive are those of the source. Cut-off read from the data, not from the text of the source: active = growth inhibition above about 70%; inactive = the rest.
Valid outcomes are listed here; reply with one: Yes (active), No (inactive)

Record excerpt, results attached:
compound	category
COC(=O)C1=C(C(=O)OC)CC(n2nnc(C(=O)OC)c2C(=O)OC)=CC1	No
COc1ccccc1NC(=O)c1ccc(Cl)cc1	No
CN(C)CCCn1c2c3ccccc3ccc2c2oc(=O)c3ccccc3c21	Yes
CCOP(=O)(OCC)/C(C#N)=C\c1cccc2ccccc12	Yes
OB(O)c1ccccc1C#Cc1ccccc1	No
O=C(Cc1ccccc1)NNc1nc(NNC(=O)c2ccncc2)nc(Nc2ccc(Cl)cc2)n1	No
O=[N+]([O-])c1ccc2nc(=S)[nH]n2c1	No
CC(C)[Si]1(C(C)C)OCC2OC(n3cnc4c(N)ncnc43)C(N)C2O[Si](C(C)C)(C(C)C)O1 (stereo unspecified)	Yes
OC(c1ccccc1)(c1ccccc1)c1nccc2ccccc12	No
COc1cccc(/C=C2\S/C(=N/Nc3nc(-c4ccc([N+](=O)[O-])cc4)cs3)NC2=O)c1O	Yes

Request: Each compound tested received a call. Report the one for CC1=C(C)C(=O)C2=C(OCCO2)C1=O .
Result: No

Request: And what about the compound CC1(C)CC(=O)C(C(=O)Nc2cccs2)=C(O)C1 ?
Result: No

Request: And what about the compound CC1(C)CC(=O)C(/C=N/c2nc(-c3ccc(Br)cc3)cs2)=C(O)C1 ?
Result: Yes

Request: And what about the compound C=CC(C)(C)N1C(=O)C(C(C)=O)=C(O)C1Cc1c[nH]c2ccccc12 (stereo unspecified) ?
Result: Yes

Request: And what about the compound NC(=S)N1N=C2c3ccccc3CC[C@@H]2[C@@H]1c1ccccc1 ?
Result: Yes

Request: And what about the compound N#[N+]c1c([O-])c2ccccc2c2ccccc12 ?
Result: No

Request: And what about the compound O=C(Cc1ccccc1)NN1C(=O)C(Cl)C1c1cc(Br)cc(Br)c1O (stereo unspecified) ?
Result: Yes

Request: And what about the compound CCO/C=C1\SC(=S)N(c2ccc(OCC)cc2)C1=O ?
Result: No

Request: And what about the compound Cc1cc2nc3ccccc3n2c2ccccc12 ?
Result: No
